Test: Human liver microsome (HLM) metabolic stability assay
Type: in vitro ADME
Settings: human liver microsomes
READOUT KIND: Metabolic stability (Qh %), % hepatic blood flow

Record "CO[C@@H]1CN(c2nc(-c3cccc(Cl)c3OCc3ccc4c(c3C)CCN(C3CCOCC3)C4)cs2)CC[C@@H]1C(=O)O" . Reported Metabolic stability (Qh %), % hepatic blood flow: <24%

Form: compound = "CCc1cc(COc2c(C)cccc2-c2csc(N3CC[C@@H](C(=O)O)[C@@H](OC)C3)n2)cc2c1CN(C1CCOCC1)CC2" ; Metabolic stability (Qh %), % hepatic blood flow = <24%

What the record says about "CO[C@H]1CN(c2nc(-c3cccc(C)c3OCc3cc(C)c4c(c3)CCN(C3CCOCC3)CC4)cs2)CC[C@H]1C(=O)O" : Metabolic stability (Qh %), % hepatic blood flow is <24%
